target: androgen receptor ligand binding domain (AR LBD) bound with DHT (chimp construct; LBD sequence stated identical to human); assay: X-ray cocrystal structure; surface area buried from both molecules on binding
Sequence (P10275 whole entry, the tested form may be a part): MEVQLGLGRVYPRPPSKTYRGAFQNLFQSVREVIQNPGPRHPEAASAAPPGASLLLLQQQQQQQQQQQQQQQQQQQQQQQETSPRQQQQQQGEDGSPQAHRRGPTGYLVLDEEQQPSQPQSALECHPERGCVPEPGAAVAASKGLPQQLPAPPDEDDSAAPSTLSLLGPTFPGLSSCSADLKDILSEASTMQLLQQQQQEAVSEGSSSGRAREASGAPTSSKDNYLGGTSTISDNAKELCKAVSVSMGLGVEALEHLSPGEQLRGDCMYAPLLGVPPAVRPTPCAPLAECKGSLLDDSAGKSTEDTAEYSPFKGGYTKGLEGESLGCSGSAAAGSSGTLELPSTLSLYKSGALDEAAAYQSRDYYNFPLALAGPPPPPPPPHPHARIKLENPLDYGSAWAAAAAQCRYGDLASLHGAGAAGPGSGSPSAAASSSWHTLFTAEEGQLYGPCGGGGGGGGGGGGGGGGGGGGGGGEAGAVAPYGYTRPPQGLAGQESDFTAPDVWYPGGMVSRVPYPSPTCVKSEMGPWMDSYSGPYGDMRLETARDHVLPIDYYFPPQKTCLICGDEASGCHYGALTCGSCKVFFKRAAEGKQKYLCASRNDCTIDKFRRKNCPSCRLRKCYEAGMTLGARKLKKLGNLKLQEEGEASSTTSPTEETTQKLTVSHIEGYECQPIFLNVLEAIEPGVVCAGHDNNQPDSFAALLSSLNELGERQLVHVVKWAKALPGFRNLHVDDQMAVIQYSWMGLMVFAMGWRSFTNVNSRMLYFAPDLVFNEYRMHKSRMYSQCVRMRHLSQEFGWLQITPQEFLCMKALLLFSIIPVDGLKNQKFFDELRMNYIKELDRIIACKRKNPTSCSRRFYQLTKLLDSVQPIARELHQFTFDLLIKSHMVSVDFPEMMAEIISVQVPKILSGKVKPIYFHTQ
EXPERIMENTAL_ENDPOINT: buried surface area (Å^2)

• SSNTPRFKEYFMQSR [coactivator-related peptide CRP-6] = 1230
• SRWQALFDDGTDTSR [coactivator-related peptide CRP-2] = 963
• SSKFAALWDPPKLSR [coactivator-related peptide CRP-4] = 930
• SRWAEVWDDNSKVSR [coactivator-related peptide CRP-7] = 882
